Where these numbers come from: paper PMC5700166

Molecular target: GST-Nv-NF-kB (Ser allele) (Nematostella vectensis, UniProt A7UNT2 2-411)
Sequence: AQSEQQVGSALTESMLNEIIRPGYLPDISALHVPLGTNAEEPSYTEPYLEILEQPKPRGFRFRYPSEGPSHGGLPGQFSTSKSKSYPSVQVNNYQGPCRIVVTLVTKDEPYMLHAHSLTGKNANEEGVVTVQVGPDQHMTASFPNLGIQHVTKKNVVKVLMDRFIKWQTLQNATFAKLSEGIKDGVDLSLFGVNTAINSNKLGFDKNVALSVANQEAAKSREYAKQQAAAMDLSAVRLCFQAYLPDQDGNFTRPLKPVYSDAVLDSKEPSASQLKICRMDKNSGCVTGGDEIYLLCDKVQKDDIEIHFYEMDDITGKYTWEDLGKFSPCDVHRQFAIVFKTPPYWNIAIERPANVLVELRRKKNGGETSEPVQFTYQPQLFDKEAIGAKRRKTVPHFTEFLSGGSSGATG
Assay: protein-binding microarray (PBM); PBM: ~300 nM protein, 6 mM HEPES pH 7.8, 80 mM KCl, 0.5 mM EDTA, 0.5 mM EGTA, 6% glycerol, 35 ng/ul poly-dIdC, 1% milk, 1 h, room temperature; high values mean tight binding
Details: dsDNA, one strand shown
binding signal values by entry
Could you give me the number in z-score? Just the number is fine.

// below: answered sequences
> print(dat)
                              sequence.code                               test.target  units.label  observed.result
1  CCGATTAACATCAGAATTGCCCCTGATGTTAATCGGGTCTTGATTCGCTTGACGCTGCTG  GST-Nv-NF-kB (Ser allele) (Nematostella vectensis, UniProt A7UNT2 2-411)      z-score             2.89
2  CCGATTAACATCAGGGAAAAAACTGATGTTAATCGGGTCTTGATTCGCTTGACGCTGCTG  GST-Nv-NF-kB (Ser allele) (Nematostella vectensis, UniProt A7UNT2 2-411)      z-score             6.38
3  CCGATTAACATCATTAGGGTATTTGATGTTAATCGGGTCTTGATTCGCTTGACGCTGCTG  GST-Nv-NF-kB (Ser allele) (Nematostella vectensis, UniProt A7UNT2 2-411)      z-score             4.26
4  CCGATTAACATCAGGGGGTTATATGATGTTAATCGGGTCTTGATTCGCTTGACGCTGCTG  GST-Nv-NF-kB (Ser allele) (Nematostella vectensis, UniProt A7UNT2 2-411)      z-score             6.26
5  CCGATTAACATCAAGTACCCCCATGATGTTAATCGGGTCTTGATTCGCTTGACGCTGCTG  GST-Nv-NF-kB (Ser allele) (Nematostella vectensis, UniProt A7UNT2 2-411)      z-score             3.01
6  CCGATTAACATCAGAATATTCCCTGATGTTAATCGGGTCTTGATTCGCTTGACGCTGCTG  GST-Nv-NF-kB (Ser allele) (Nematostella vectensis, UniProt A7UNT2 2-411)      z-score             5.76
7  CCGATTAACATCAAATTCCCAGATGATGTTAATCGGGTCTTGATTCGCTTGACGCTGCTG  GST-Nv-NF-kB (Ser allele) (Nematostella vectensis, UniProt A7UNT2 2-411)      z-score             3.83
8  CCGATTAACATCACCCCAGCCCCTGATGTTAATCGGGTCTTGATTCGCTTGACGCTGCTG  GST-Nv-NF-kB (Ser allele) (Nematostella vectensis, UniProt A7UNT2 2-411)      z-score             1.91

For reference, reported binding signal for "CCGATTAACATCACAGAGTCCCCTGATGTTAATCGGGTCTTGATTCGCTTGACGCTGCTG" stands at 6.04

Lookup result for "CCGATTAACATCAGGGGAGAATATGATGTTAATCGGGTCTTGATTCGCTTGACGCTGCTG" ; measured binding signal: 6.21

Query "CCGATTAACATCAAAAAACACCCTGATGTTAATCGGGTCTTGATTCGCTTGACGCTGCTG" yields binding signal of 4.25

Lab note: measured binding signal of "CCGATTAACATCAAATGTGGGAATGATGTTAATCGGGTCTTGATTCGCTTGACGCTGCTG" was 1.31

Quick note, binding signal for "CCGATTAACATCAAATAGCCCCCTGATGTTAATCGGGTCTTGATTCGCTTGACGCTGCTG" landed at 3.62

For this sequence ( "CCGATTAACATCAGGGAATGTACTGATGTTAATCGGGTCTTGATTCGCTTGACGCTGCTG" ), measured binding signal is 3.55

----------
Target: GST-Nv-NF-kB (Ser allele) (Nematostella vectensis, UniProt A7UNT2 2-411)
Sequence: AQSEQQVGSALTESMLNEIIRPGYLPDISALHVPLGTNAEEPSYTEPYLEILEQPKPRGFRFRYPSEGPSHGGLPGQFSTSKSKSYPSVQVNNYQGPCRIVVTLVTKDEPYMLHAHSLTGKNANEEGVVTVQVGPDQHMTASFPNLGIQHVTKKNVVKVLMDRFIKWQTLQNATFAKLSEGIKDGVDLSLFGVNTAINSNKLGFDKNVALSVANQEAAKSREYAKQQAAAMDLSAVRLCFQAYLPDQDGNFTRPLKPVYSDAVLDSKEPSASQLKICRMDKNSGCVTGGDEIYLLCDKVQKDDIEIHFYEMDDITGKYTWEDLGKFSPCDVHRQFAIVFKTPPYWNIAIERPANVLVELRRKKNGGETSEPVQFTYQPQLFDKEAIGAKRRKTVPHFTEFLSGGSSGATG
Test: protein-binding microarray (PBM); PBM: ~300 nM protein, 6 mM HEPES pH 7.8, 80 mM KCl, 0.5 mM EDTA, 0.5 mM EGTA, 6% glycerol, 35 ng/ul poly-dIdC, 1% milk, 1 h, room temperature; high values mean tight binding
Conditions: dsDNA, one strand shown
measured-attribute: binding signal (z-score)
API: value field is a number in z-score; no unit string.

Examples with their reported binding signal follow.
> print(dat)
                              sequence.code  observed.result
1  CCGATTAACATCAAGGGAATTCCTGATGTTAATCGGGTCTTGATTCGCTTGACGCTGCTG             6.53
2  CCGATTAACATCACTCCCTAAAATGATGTTAATCGGGTCTTGATTCGCTTGACGCTGCTG             1.75
3  CCGATTAACATCACGGTACGGGGTGATGTTAATCGGGTCTTGATTCGCTTGACGCTGCTG              1.3
4  CCGATTAACATCAAGGGGGGAGATGATGTTAATCGGGTCTTGATTCGCTTGACGCTGCTG             4.86

Entry "CCGATTAACATCACCGCCCCACGTGATGTTAATCGGGTCTTGATTCGCTTGACGCTGCTG" — recorded binding signal = 1.37

----------
target: GST-Hu-p50 (Homo sapiens, UniProt P19838 7-356); assay: protein-binding microarray (PBM); PBM: ~300 nM protein, 6 mM HEPES pH 7.8, 80 mM KCl, 0.5 mM EDTA, 0.5 mM EGTA, 6% glycerol, 35 ng/ul poly-dIdC, 1% milk, 1 h, room temperature; Ap Aiptasia and Nv Nematostella (sea anemones) / Co Capsaspora / Aq Amphimedon (sponge) / Dm Drosophila / Hu human; RHD is the Rel homology domain; high values mean tight binding; settings: dsDNA, one strand shown
Sequence (P19838 7-356): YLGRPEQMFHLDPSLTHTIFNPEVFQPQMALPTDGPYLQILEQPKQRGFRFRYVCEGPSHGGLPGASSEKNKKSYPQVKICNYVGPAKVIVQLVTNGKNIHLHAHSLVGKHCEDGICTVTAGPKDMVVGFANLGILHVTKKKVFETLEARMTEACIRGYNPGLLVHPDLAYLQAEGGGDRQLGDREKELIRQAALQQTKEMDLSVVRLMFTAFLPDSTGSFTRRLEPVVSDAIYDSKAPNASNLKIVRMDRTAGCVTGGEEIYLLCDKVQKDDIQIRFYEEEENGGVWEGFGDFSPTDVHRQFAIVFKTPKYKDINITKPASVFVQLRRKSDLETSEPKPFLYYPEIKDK
binding signal strictly under 3 z-score means Criterion met; at 3 z-score or over means Criterion not met.

Worked examples, 4 sequences total:
> print(dat)
                              sequence.code                               test.target    label.value
1  CCGATTAACATCATTTATCCCGGTGATGTTAATCGGGTCTTGATTCGCTTGACGCTGCTG  GST-Hu-p50 (Homo sapiens, UniProt P19838 7-356)  Criterion met
2  CCGATTAACATCAAAAAAAATCCTGATGTTAATCGGGTCTTGATTCGCTTGACGCTGCTG  GST-Hu-p50 (Homo sapiens, UniProt P19838 7-356)  Criterion met
3  CCGATTAACATCAGGGAAGTCCATGATGTTAATCGGGTCTTGATTCGCTTGACGCTGCTG  GST-Hu-p50 (Homo sapiens, UniProt P19838 7-356)  Criterion met
4  CCGATTAACATCAGGCGAGTCCCTGATGTTAATCGGGTCTTGATTCGCTTGACGCTGCTG  GST-Hu-p50 (Homo sapiens, UniProt P19838 7-356)  Criterion met

We next turn to a different sequence, shown below.
## Input Item "CCGATTAACATCAGGGATTCCCATGATGTTAATCGGGTCTTGATTCGCTTGACGCTGCTG" : binding signal beneath 3 z-score, strictly?
## Output Criterion not met
